Test system: MCF-7 cells
Assay: Cell Growth Inhibition, MCF-7 (CellTiterGlo, 6 days)
Type: cell-based
Details: Homo sapiens, MCF7, 144 h
pIC50: −log10 of the molar value.
Quantity name: pIC50

{"Compound": "Cc1cc2cnc(NC3CCN(S(C)(=O)=O)CC3)nc2c(C2CC(O)(C(F)F)C2)n1 (stereo not shown)", "Quantity name": "pIC50", "Reported result": "5.70 to 6.30"}

###

Target: CDK4/Cyclin D1 (Homo sapiens (Human))
Sequence (P11802 whole entry, species assumed): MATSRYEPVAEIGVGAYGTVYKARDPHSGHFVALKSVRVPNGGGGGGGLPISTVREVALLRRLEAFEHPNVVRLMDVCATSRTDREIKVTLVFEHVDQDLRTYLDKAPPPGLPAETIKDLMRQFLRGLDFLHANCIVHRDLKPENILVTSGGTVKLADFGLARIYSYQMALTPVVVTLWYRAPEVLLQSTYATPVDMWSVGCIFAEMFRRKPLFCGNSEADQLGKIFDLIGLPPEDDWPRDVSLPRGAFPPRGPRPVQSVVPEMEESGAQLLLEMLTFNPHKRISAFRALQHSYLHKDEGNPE
Sequence (P24385 whole entry partner, species assumed): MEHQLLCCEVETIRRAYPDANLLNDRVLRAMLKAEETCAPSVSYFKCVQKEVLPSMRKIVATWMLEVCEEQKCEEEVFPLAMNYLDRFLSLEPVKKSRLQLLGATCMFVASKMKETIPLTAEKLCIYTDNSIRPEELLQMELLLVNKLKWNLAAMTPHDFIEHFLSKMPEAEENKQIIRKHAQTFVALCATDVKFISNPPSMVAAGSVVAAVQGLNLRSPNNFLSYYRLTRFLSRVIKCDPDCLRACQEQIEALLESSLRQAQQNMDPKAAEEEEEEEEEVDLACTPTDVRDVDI
Experiment: CDK4/Cyclin D1 CHEF Assay
Assay type: biochemical
Settings: AQT; read-out: CDK4/CyclinD1 AQT IC50

{"Compound": "Cc1cc2cnc(Nc3ccc(N4CC5(CN(C)C5)C4)cc3)nc2c(N2CC3(C2)CS(=O)(=O)C3)n1", "IC50": "200 to 500 nM"}
{"Compound": "Cc1cc2cnc(NC3CCN(S(C)(=O)=O)CC3)nc2c(N2CC3(CN(C)C[C@H]3F)C2)n1", "IC50": "< 200 nM"}
{"Compound": "Cc1cc2cnc(NC3CCN(S(C)(=O)=O)CC3)nc2c(N2CC3(CN(C)C[C@@H]3F)C2)n1", "IC50": "< 200 nM"}
{"Compound": "Cc1cc2cnc(N[C@H]3CC[C@@H](CN(C)C)CC3)nc2c(N2CCC3(C2)CC3(F)F)n1 (stereo partly drawn)", "IC50": "< 200 nM"}
{"Compound": "Cc1cc2cnc(Nc3ccc(N4CC5(CN(C)C5)C4)cc3)nc2c(N2CCC(C#N)(C3CC3)C2)n1 (stereo not drawn)", "IC50": "< 200 nM"}
{"Compound": "Cc1cc2cnc(Nc3ccc(N4CC5(CN(C)C5)C4)cc3)nc2c(N2CCC3(C2)CC3(F)F)n1 (stereo not drawn)", "IC50": "< 200 nM"}
{"Compound": "CN1Cc2ccc(Nc3ncc4ccnc(N5CCC6(CCN(S(C)(=O)=O)C6)C5)c4n3)cc2C1 (stereo not drawn)", "IC50": "< 200 nM"}
{"Compound": "Cc1cc2cnc(NC3CCN(S(C)(=O)=O)CC3)nc2c(N2CC3(CNC(=O)C3)C2)n1", "IC50": "< 200 nM"}
{"Compound": "Cc1cc2cnc(NC3CCN(S(C)(=O)=O)CC3)nc2c(N2CCC3(CCC3(F)F)C2)n1 (stereo not drawn)", "IC50": "< 200 nM"}
{"Compound": "Cc1cc2cnc(NC3CCN(S(C)(=O)=O)CC3)nc2c(N2CC(O)(C(F)F)C2)n1", "IC50": "< 200 nM"}
{"Compound": "FC(F)c1cc2cnc(Nc3ccc4c(c3)CN(C3CC3)C4)nc2c(N2CC3(CCNC3)C2)n1", "IC50": "< 200 nM"}
{"Compound": "Cc1cc2cnc(NC3CCN(S(=O)(=O)C4CC4)CC3)nc2c(N2CC3(C2)CC(C)(O)C3)n1", "IC50": "< 200 nM"}
{"Compound": "Cc1cc2cnc(NC3CCN(S(=O)(=O)c4cnn(C)c4)CC3)nc2c(N2CC3(CCNCC3(F)F)C2)n1", "IC50": "< 200 nM"}
{"Compound": "Cc1cc2cnc(NC3CCN(S(C)(=O)=O)CC3)nc2c(N2CCC3(CC3)C2)n1", "IC50": "< 200 nM"}
{"Compound": "Cc1cc2cnc(NC3CCN(S(C)(=O)=O)CC3)nc2c(N2CC3(CCC(=O)NC3)C2)n1", "IC50": "200 to 500 nM"}
{"Compound": "Cc1cc2cnc(Nc3cc4c(cc3F)CN(S(C)(=O)=O)C4)nc2c(N2CC3(CCNC3)C2)n1", "IC50": "200 to 500 nM"}
{"Compound": "Cc1cc2cnc(NC3CCN(S(C)(=O)=O)CC3)nc2c(N2CC(F)(F)C3(CNC3)C2)n1", "IC50": "< 200 nM"}
{"Compound": "Cc1cc2cnc(NC3CCN(S(=O)(=O)C4CC4)CC3)nc2c(N2CC(C#N)(CCF)C2)n1", "IC50": "200 to 500 nM"}
{"Compound": "COC1CC2(C1)CN(c1nc(C)cc3cnc(NC4CCN(S(=O)(=O)C5CC5)CC4)nc13)C2", "IC50": "< 200 nM"}
{"Compound": "Cc1cc2cnc(Nc3cnn(C4CC5(C4)CN(C)C5)c3)nc2c(N2CC3(C2)CN(S(C)(=O)=O)C3)n1", "IC50": "200 to 500 nM"}
{"Compound": "CS(=O)(=O)N1CCC(Nc2ncc3cc(C(F)F)nc(N4CC5(CNCCC5(F)F)C4)c3n2)CC1", "IC50": "< 200 nM"}
{"Compound": "COC1CC2(C1)CN(c1nc(C)cc3cnc(NC4CCN(S(C)(=O)=O)CC4)nc13)C2", "IC50": "< 200 nM"}
{"Compound": "Cc1cc2cnc(NC3CCN(S(=O)(=O)C4CC4)CC3)nc2c(N2CCC(OC(F)F)C2)n1 (stereo not drawn)", "IC50": "< 200 nM"}
{"Compound": "Cc1cc2cnc(NC3CCN(S(C)(=O)=O)CC3)nc2c(C2CC(O)(C3CC3)C2)n1 (stereo not drawn)", "IC50": "< 200 nM"}

###

Target: CDK6/Cyclin D3 (Homo sapiens (Human))
Sequence (Q00534 whole entry): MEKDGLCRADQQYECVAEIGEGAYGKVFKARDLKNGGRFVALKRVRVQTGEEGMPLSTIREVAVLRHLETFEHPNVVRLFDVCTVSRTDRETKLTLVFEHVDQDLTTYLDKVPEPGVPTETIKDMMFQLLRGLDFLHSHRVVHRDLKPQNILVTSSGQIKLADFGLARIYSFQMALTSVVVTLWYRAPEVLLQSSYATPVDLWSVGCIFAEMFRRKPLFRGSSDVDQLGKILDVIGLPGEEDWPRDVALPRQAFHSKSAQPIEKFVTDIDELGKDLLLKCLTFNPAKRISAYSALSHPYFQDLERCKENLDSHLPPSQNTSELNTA
Sequence (P30281 whole entry partner): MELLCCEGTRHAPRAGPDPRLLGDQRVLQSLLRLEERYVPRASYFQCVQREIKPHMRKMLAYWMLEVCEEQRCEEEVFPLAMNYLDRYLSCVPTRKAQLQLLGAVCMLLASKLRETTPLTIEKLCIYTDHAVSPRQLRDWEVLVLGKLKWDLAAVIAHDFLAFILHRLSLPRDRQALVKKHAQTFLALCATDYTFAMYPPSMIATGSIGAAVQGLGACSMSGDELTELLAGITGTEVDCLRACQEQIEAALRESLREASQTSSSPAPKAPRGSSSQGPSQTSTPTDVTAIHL
Test: CDK6/Cyclin D3 ADP-Glo Kinase Assay
Format: biochemical
Conditions: read-out: CDK6/CyclinD3 IC50
Quantity name: IC50

{"Compound": "COCCN1CC2(CC(c3nc(C4CC4)cc4cnc(NC5CCN(S(=O)(=O)CC6CCC6)CC5)nc34)C2)C1", "Reported result": "< 200 nM"}
{"Compound": "Cc1cc2cnc(NC3CCN(S(C)(=O)=O)CC3)nc2c(C2CC(O)(C3CC3)C2)n1 (stereo not shown)", "Reported result": "< 200 nM"}
{"Compound": "Cc1cc2cnc(NC3CCN(S(C)(=O)=O)CC3)nc2c(N2CC3(C2)CN(C2CC2)C3)n1", "Reported result": "500 to 2000 nM"}
{"Compound": "CS(=O)(=O)N1CCC(Nc2ncc3cc(C4CC4)nc(N4CC(F)(F)C5(CNC5)C4)c3n2)CC1", "Reported result": "< 200 nM"}

Cited source for all entries: patent US20250235456A1
